Multiple publications report IC50 for UniProt P06239; what follows is a combined list.
Sequence (P06239 whole entry): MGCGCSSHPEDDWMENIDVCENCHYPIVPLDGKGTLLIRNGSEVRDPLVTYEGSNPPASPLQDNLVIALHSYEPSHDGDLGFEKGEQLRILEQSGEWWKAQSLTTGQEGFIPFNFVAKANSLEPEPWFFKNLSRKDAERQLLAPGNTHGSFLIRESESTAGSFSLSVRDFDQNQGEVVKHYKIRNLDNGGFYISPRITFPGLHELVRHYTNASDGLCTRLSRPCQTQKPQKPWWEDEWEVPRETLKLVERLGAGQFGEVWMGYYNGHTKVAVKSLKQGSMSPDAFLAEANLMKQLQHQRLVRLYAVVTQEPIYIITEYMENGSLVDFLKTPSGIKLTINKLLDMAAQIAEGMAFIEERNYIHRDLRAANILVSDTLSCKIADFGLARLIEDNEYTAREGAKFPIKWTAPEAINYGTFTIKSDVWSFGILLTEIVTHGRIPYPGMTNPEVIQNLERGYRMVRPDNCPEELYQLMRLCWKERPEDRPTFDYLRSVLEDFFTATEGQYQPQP
Test readout: IC50

>  <Smiles notation>
O=C1c2oc(-c3ccc(Cl)cc3)cc2Cc2cc(N3CCNCC3)ccc2N1Cc1ccccc1-c1cccnc1

>  <Target of assay>
UniProt P06239

>  <Test readout>
IC50

>  <Result>
> 19 µM

$$$$
>  <Smiles notation>
Brc1ccc(N/N=C/c2cccnc2)cc1

>  <Target of assay>
UniProt P06239

>  <Test readout>
IC50

>  <Result>
> 2900 µM

$$$$
>  <Smiles notation>
COc1cc2c(cc1Cl)C(c1cccc(Cl)c1)=NCC2

>  <Target of assay>
UniProt P06239

>  <Test readout>
IC50

>  <Result>
> 10 µM

$$$$
>  <Smiles notation>
Oc1ccc(Br)cc1/C=N/Nc1ccccc1

>  <Target of assay>
UniProt P06239

>  <Test readout>
IC50

>  <Result>
> 2600 µM

$$$$
